# Test system: SK-MEL-28 melanoma
# assay_method_text: NCI tumour cell line growth inhibition, 48 h
reported_metric: TGI

Illustrative cases are given below, each with its answer.
molecule	experimental_value
CC1=CC(=O)/C(=C/n2c(=S)[nH]c3cc(C)ccc32)C(=O)O1	> 100 µM
C[C@]12CC[C@H](O)CC1=CC[C@@H]1[C@@H]2CC[C@]2(C)C(=O)/C(=C/c3ccc([N+](=O)[O-])cc3)C[C@@H]12	74.7 µM
CC[C@H](C)[C@H](NC(=O)NC(C)(C)C)C(=O)N(C)[C@H](C[C@@H](OC(C)=O)c1nc(C(=O)N[C@@H](Cc2ccccc2)C[C@H](C)C(=O)OC)cs1)C(C)C	> 25 µM
NC(CCc1ncc(-c2ccccc2)s1)C(=O)O (stereo not given)	> 100 µM
CN(C)CCNC(=O)c1c2ccccc2cc2ccccc12	64.4 µM
C[N+](C)(C)CC(CC(=O)[O-])C1CC1 (stereo not given)	> 100 µM

Please turn your attention to the following entry.
Exam item: Requested read-out: TGI. Entry: O=C1CC(c2ccsc2)c2snc(-c3ccc(Cl)cc3)c2N1 (stereo not given)
Marked response: > 100 µM

---

# Test system: DMS 273 small cell lung
# assay_method_text: NCI tumour cell line growth inhibition, 48 h
reported_metric: TGI

Illustrative cases are given below, each with its answer.
> print(dat)
                                   molecule  experimental.value
1  ClC1c2ccccc2C2(c3ccccc3)OOC1(c1ccccc1)O2 (stereo not given)             3.17 µM
2  CCCCCCCCCCCCCCCC(=O)OCC1OC(OC)C(NC(=O)N(CCCl)N=O)C(O)C1O (stereo not given)             25.2 µM
3  C=C1CCC2C(C)(CO)C(O)CCC2(C)C1C/C=C1/CCOC1=O (stereo not given)            > 100 µM
4  COc1ccc(N=Nc2c(-c3ccccc3)nn(C(=O)CC(=O)Nc3ccccc3Cl)c2-c2ccccc2)cc1            > 100 µM
5  NC(CCc1ncc(-c2ccccc2)s1)C(=O)O (stereo not given)            > 100 µM
6  CCOc1ccc(NCC2CC/C(=C\c3ccc(Cl)cc3)C2=O)cc1 (stereo not given)           > 54.1 µM
7                 Cc1cccc(C(C)C)c1NC(=O)CCl            > 100 µM
8                           O=C1CCNC(=O)NC1            > 100 µM

Exam item: Requested read-out: TGI. Entry: COc1ccccc1NC(=O)C1=C(C)NC(C)=C(C(=O)Nc2ccccc2OC)C1c1cccc2ccccc12
Marked response: > 100 µM

Exam item: Requested read-out: TGI. Entry: CC(O)C(NC(=O)c1ccccc1)C(=O)N(Cc1ccccc1)Cc1ccccc1 (stereo not given)
Marked response: > 100 µM

---

# Test system: CCRF-CEM leukemia
# assay_method_text: NCI tumour cell line growth inhibition, 48 h; in the data active means GI50 below about 0.43 µM; inactive means the rest
Valid outcomes are listed here; reply with one: yes (1) = active, no (0) = inactive

Solved cases below.
> print(dat)
                                   compound  assigned.class
1  CCSc1ccc([C@@H]2[C@@H](N)C(=O)N2c2cc(OC)c(OC)c(OC)c2)cc1         yes (1)
2  O=C1NC(=O)[C@@H](c2c[nH]c3ccccc23)[C@@H]1c1c[nH]c2ccccc12          no (0)
3  CCOC(=O)c1ccccc1SC(C[N+](=O)[O-])c1ccccc1 (stereo unspecified)          no (0)
4                Clc1ccc2nc(Cl)c3ccccc3c2c1          no (0)
5  O=C(Cc1ccc(Nc2ccnc(C(F)(F)F)c2)cc1)Nc1cc(Cl)ccc1O          no (0)

// next entry
Exam item: Outcome? OCCn1cc(-c2cnc3nnn(Cc4ccc5ncccc5c4)c3n2)cn1
Marked response: no (0)
